- MEASUREMENT DESCRIPTION: Inhibition of Mycobacterium tuberculosis RNA polymerase D435V mutant by rolling circle transcription assay in the presence of sigmaA factor
MEASURE NAME: pIC50
Formally, pIC50 is defined as -log10 of the concentration c, with c in mol/L.

query: Give the measured pIC50 of CO[C@H]1/C=C/O[C@@]2(C)Oc3c(C)c(O)c4c(=O)c(c5oc6cccc(OCCCCN7CCN(CCn8ccnc8)CC7)c6nc-5c4c3C2=O)NC(=O)/C(C)=C\C=C\[C@H](C)[C@H](O)[C@@H](C)[C@@H](O)[C@@H](C)[C@H](OC(C)=O)[C@@H]1C .
result: 5.05

query: Which pIC50 is listed for CO[C@H]1/C=C/O[C@@]2(C)Oc3c(C)c(O)c4c(=O)c(c5oc6cc(N7CCN(CC(C)C)CC7)cc(O)c6nc-5c4c3C2=O)NC(=O)/C(C)=C\C=C\[C@H](C)[C@H](O)[C@@H](C)[C@@H](O)[C@@H](C)[C@H](OC(C)=O)[C@@H]1C ?
result: 3.27

query: # lookup: pIC50 of CCN(CC)CCOc1cccc2oc3c4c(=O)c5c(O)c(C)c6c(c5c-3nc12)C(=O)[C@@](C)(O/C=C/[C@H](OC)[C@@H](C)[C@@H](OC(C)=O)[C@H](C)[C@H](O)[C@H](C)[C@@H](O)[C@@H](C)/C=C/C=C(/C)C(=O)N4)O6
result: 4.70

query: Consider the compound CO[C@H]1/C=C/O[C@@]2(C)Oc3c(C)c(O)c4c(=O)c(c5oc6cccc(OCCCCN7CCN(C(=O)Cn8ccnc8)CC7)c6nc-5c4c3C2=O)NC(=O)/C(C)=C\C=C\[C@H](C)[C@H](O)[C@@H](C)[C@@H](O)[C@@H](C)[C@H](OC(C)=O)[C@@H]1C and give its measured pIC50.
result: 4.89
